biological target: human GCG receptor (human, UniProt P47871 26-477); assay: cell-based or functional assay
Sequence (P47871 26-477): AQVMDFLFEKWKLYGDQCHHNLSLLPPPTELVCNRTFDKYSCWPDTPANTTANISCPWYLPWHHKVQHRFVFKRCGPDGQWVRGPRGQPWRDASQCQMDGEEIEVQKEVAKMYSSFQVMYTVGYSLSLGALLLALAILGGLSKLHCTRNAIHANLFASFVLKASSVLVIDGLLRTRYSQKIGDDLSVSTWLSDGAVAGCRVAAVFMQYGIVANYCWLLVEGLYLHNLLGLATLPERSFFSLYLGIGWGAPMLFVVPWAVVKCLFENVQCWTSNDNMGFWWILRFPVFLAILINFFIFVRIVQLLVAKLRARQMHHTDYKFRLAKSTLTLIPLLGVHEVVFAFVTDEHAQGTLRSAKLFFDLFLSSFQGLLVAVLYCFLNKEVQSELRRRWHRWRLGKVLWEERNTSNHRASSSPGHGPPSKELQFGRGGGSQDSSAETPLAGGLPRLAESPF
Bridge positions count the residues as written; N and C are the ends. Square brackets hold non-standard residues; d marks the D form. Ends that are not written are not given here. * marks the point of attachment. Acetyl(2-(4-imidazolyl)) = O=C(Cc1c[nH]cn1)*; Aib = CC(C)(N)C(=O)O
parameter: In vitro activity (%) compared with native peptide, vs Glucagon

For orientation, consider the following solved cases.
HGQGTFTSDCSKYLDEQHAQEFVAWLLAGGPSSGAPPPS [triple agonist of SEQ ID NO: 46]; < 0.1%
H[Aib]QGTFTSDKSKYLDERACQDFVQWLLDGGPSSGAPPPS (not fully specified) [triple agonist of SEQ ID NO: 40]; < 0.1%

Attention now turns to another entry.
Recall and state the measured In vitro activity (%) compared with native peptide, vs Glucagon for [Acetyl(2-(4-imidazolyl))][Aib]QGTFTSDYSICMDEKHQKDFVNWLLNTK (bridge 16-20; not fully specified) [triple agonist of SEQ ID NO: 59] .
< 0.1%
